Structures can show the parent of a compound that is named as a salt.
result type: melting point

INSERT INTO results (molecule, val) VALUES
  ('CCNCCNc1ccc2nnn3c4ccc(O)cc4c(=O)c1c23 (as salt: hydrochloride) [Compound C-1410]', '300 °C'),
  ('Cc1ccc2c(c1)c(=O)c1c(NCCCN(C)C)ccc3nnn2c31 (as salt: hydrochloride) [Compound C-1296]', '120 to 122 °C'),
  ('NCCNc1ccc2ncn3c4ccc(O)cc4c(=O)c1c23 (as salt: hydrochloride) [Compound 1]', '332 to 334 °C'),
  ('CN(C)CCCNc1ccc2nnn3c4ccc(O)cc4c(=O)c1c23 (as salt: hydrochloride) [Compound C-1305]', '228 to 230 °C');
